Just for reference, PubChem BioAssay (EPA / NIEHS) is where these values come from.

MEASURED ON: Retinoic acid receptor alpha (Homo sapiens) (UniProt P10276)
Sequence (P10276 whole entry, looked up): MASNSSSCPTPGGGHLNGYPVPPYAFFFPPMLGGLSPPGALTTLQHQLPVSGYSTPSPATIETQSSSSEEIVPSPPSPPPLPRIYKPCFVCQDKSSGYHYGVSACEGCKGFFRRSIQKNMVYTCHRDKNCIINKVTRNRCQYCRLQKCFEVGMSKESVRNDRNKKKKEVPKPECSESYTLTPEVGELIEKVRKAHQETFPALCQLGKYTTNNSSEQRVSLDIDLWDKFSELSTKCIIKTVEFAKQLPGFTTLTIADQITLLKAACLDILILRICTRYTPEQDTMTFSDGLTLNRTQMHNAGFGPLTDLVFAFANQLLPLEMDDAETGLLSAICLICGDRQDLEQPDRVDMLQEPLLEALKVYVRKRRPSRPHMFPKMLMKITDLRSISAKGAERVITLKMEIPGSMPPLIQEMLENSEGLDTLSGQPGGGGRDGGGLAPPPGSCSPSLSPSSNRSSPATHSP
ASSAY EXPLANATION: ATG_RARa_TRANS: Attagene TRANS-FACTORIAL HepG2 Assay for human Retinoic Acid Receptor alpha (RARa) (AID 2283005)
Inconclusive results are not listed. Active and inactive are the calls of the source. Rule for the calls: active = hit-call score of the fitted dose curve at least 0.9, where 1 is the maximum; inconclusive = response in the unintended direction; inactive = score below 0.9.
Pick one: true (1) (active), false (0) (inactive)

What is the recorded call for this molecule in the test? COc1ccc(C(c2ccc(OC)cc2)C(Cl)(Cl)Cl)cc1
false (0)

What is the recorded call for this molecule in the test? N#CC(CCc1ccc(Cl)cc1)(Cn1cncn1)c1ccccc1 (stereo not given)
false (0)

What is the recorded call for this molecule in the test? Fc1ccc(Oc2ccnc3cc(Cl)cc(Cl)c23)cc1
false (0)

What is the recorded call for this molecule in the test? O=C(O)COc1nc(Cl)c(Cl)cc1Cl
false (0)

What is the recorded call for this molecule in the test? COC(=O)N(OC)c1ccccc1COc1ccn(-c2ccc(Cl)cc2)n1
false (0)

What is the recorded call for this molecule in the test? CCNc1nc(Cl)nc(NCC)n1
false (0)

What is the recorded call for this molecule in the test? CC(Oc1ccc(Cl)cc1Cl)C(=O)O (stereo not given)
false (0)

What is the recorded call for this molecule in the test? Cc1c(F)c(F)c(COC(=O)C2C(/C=C(\Cl)C(F)(F)F)C2(C)C)c(F)c1F (stereo not given)
true (1)

What is the recorded call for this molecule in the test? N#Cc1nn(-c2c(Cl)cc(C(F)(F)F)cc2Cl)c(N)c1S(=O)C(F)(F)F (stereo not given)
false (0)

What is the recorded call for this molecule in the test? CCCCNC(=O)OCC#CI
false (0)

What is the recorded call for this molecule in the test? COC(=O)C(C)Oc1ccc(Oc2ccc(Cl)cc2Cl)cc1 (stereo not given)
false (0)

What is the recorded call for this molecule in the test? CCCCOC(=O)c1ccccc1C(=O)OCCCC
false (0)

What is the recorded call for this molecule in the test? Cc1ccc(-c2c(Cl)nc(C#N)n2S(=O)(=O)N(C)C)cc1
false (0)

What is the recorded call for this molecule in the test? CCCCNC(=O)n1c(NC(=O)OC)nc2ccccc21
false (0)

What is the recorded call for this molecule in the test? CCOP(=S)(OCC)SCn1c(=O)oc2cc(Cl)ccc21
true (1)

----------
Read-out: Cytochrome P450 3A4 (Homo sapiens)
ASSAY EXPLANATION: CLD_CYP3A4_48hr: CellzDirect (CLD) Gene Expression Assay for xenobiotic metabolism (CYP3A4) at 48 hours (AID 2283698)
Results filed as inconclusive are left out. The source made the active and inactive calls. Rule for the calls: active = hit-call score of the fitted dose curve at least 0.9, where 1 is the maximum; inconclusive = response in the unintended direction; inactive = score below 0.9.
Pick one: class 1 = active, class 0 = inactive

What is the recorded call for this compound in the test? CC(C)(C)c1ccc(CSc2cnn(C(C)(C)C)c(=O)c2Cl)cc1
class 0

What is the recorded call for this compound in the test? COC(=O)c1ccccc1C(=O)OC
class 0

What is the recorded call for this compound in the test? COP(=S)(OC)Oc1nc(Cl)c(Cl)cc1Cl
class 0

What is the recorded call for this compound in the test? CNC(=O)ON=CC(C)(C)SC
class 0

What is the recorded call for this compound in the test? Cc1cc(Cl)ccc1OCC(=O)O
class 0

What is the recorded call for this compound in the test? CCOC(=O)CC(SP(=S)(OC)OC)C(=O)OCC (centres undefined)
class 0

What is the recorded call for this compound in the test? N#Cc1nn(-c2c(Cl)cc(C(F)(F)F)cc2Cl)c(N)c1S(=O)C(F)(F)F (centres undefined)
class 1

What is the recorded call for this compound in the test? COc1nc(C)nc(NC(=O)NS(=O)(=O)c2ccccc2Cl)n1
class 0

What is the recorded call for this compound in the test? CC1COC(Cn2cncn2)(c2ccc(Oc3ccc(Cl)cc3)cc2Cl)O1 (centres undefined)
class 0

What is the recorded call for this compound in the test? CC(C)C1(C)N=C(c2nc3ccccc3cc2C(=O)O)NC1=O (centres undefined)
class 0

What is the recorded call for this compound in the test? CCCC1COC(Cn2cncn2)(c2ccc(Cl)cc2Cl)O1 (centres undefined)
class 1

What is the recorded call for this compound in the test? CC(C)Oc1cc(-n2nc(C(C)(C)C)oc2=O)c(Cl)cc1Cl
class 1

What is the recorded call for this compound in the test? O=C(O)c1nc(Cl)ccc1Cl
class 0

What is the recorded call for this compound in the test? CCc1nn(C)c(C(=O)NCc2ccc(C(C)(C)C)cc2)c1Cl
class 1

What is the recorded call for this compound in the test? CCCCOC(=O)c1ccccc1C(=O)OCCCC
class 0

What is the recorded call for this compound in the test? Oc1ccccc1-c1ccccc1
class 0

What is the recorded call for this compound in the test? OC(c1ccc(Cl)cc1)(c1cncnc1)c1ccccc1Cl (centres undefined)
class 1

What is the recorded call for this compound in the test? COP(N)(=O)SC (centres undefined)
class 0

What is the recorded call for this compound in the test? CC1=C(C(=O)Nc2ccccc2)SCCO1
class 0

What is the recorded call for this compound in the test? CCNc1nc(Cl)nc(NCC)n1
class 0

What is the recorded call for this compound in the test? CCOC(=O)C(Cl)Cc1cc(-n2nc(C)n(C(F)F)c2=O)c(F)cc1Cl (centres undefined)
class 1

What is the recorded call for this compound in the test? CC(Oc1ccc(Cl)cc1Cl)C(=O)O (centres undefined)
class 0

What is the recorded call for this compound in the test? COC(=O)C(C)Oc1ccc(Oc2ccc(Cl)cc2Cl)cc1 (centres undefined)
class 0

What is the recorded call for this compound in the test? CCOP(=S)(OCC)SCn1c(=O)oc2cc(Cl)ccc21
class 1
